Tested on: MBHA DNA substrate
PROCEDURE_SUMMARY: Modified FID assay, SYBR Green I
Format: binding
TEST_CONDITIONS: SYBR Green I-FID; average (±SD) percent bound at 100 μM
QUANTITY_MEASURED: DNA binding (%)

[[record]]
structure_string = "Cc1ccc2nc(-c3ccc4nc(-c5ccc(NC(=O)c6cccc(Cl)c6)cc5)sc4c3)sc2c1S(=O)(=O)O"
measurement_target = "MBHA DNA substrate"
observed_value = 41

[[record]]
structure_string = "Cc1ccc2nc(-c3ccc4nc(-c5ccc(NC(=O)c6ccc(NC(=O)OCC7c8ccccc8-c8ccccc87)cc6)cc5)sc4c3)sc2c1S(=O)(=O)O"
measurement_target = "MBHA DNA substrate"
observed_value = 76

[[record]]
structure_string = "Cc1ccc2nc(-c3ccc4nc(-c5ccc(NC(=O)c6ccc(Cl)c(Cl)c6)cc5)sc4c3)sc2c1S(=O)(=O)O"
measurement_target = "MBHA DNA substrate"
observed_value = 67

[[record]]
structure_string = "Cc1ccc(NC(=O)Nc2ccc(-c3nc4ccc(-c5nc6ccc(C)c(S(=O)(=O)O)c6s5)cc4s3)cc2)cc1"
measurement_target = "MBHA DNA substrate"
observed_value = 90

[[record]]
structure_string = "Cc1ccc2nc(-c3ccc4nc(-c5ccc(NC(=O)c6ccc(Br)cc6)cc5)sc4c3)sc2c1S(=O)(=O)O"
measurement_target = "MBHA DNA substrate"
observed_value = 70

[[record]]
structure_string = "Cc1ccc2nc(-c3ccc4nc(-c5ccc(NC(=O)c6ccc(F)cc6)cc5)sc4c3)sc2c1S(=O)(=O)O.N"
measurement_target = "MBHA DNA substrate"
observed_value = 35

[[record]]
structure_string = "Cc1ccc2nc(-c3ccc4nc(-c5ccc(NC(=O)c6ccc(N)cc6)cc5)sc4c3)sc2c1S(=O)(=O)O"
measurement_target = "MBHA DNA substrate"
observed_value = 63

[[record]]
structure_string = "Cc1ccc2nc(-c3ccc4nc(-c5ccc(N(C)C(=O)c6ccc7ccccc7c6)cc5)sc4c3)sc2c1S(=O)(=O)O"
measurement_target = "MBHA DNA substrate"
observed_value = 35

[[record]]
structure_string = "Cc1ccc2nc(-c3ccc4nc(-c5ccc(NC(=O)c6cc(F)cc(C(F)(F)F)c6)cc5)sc4c3)sc2c1S(=O)(=O)O"
measurement_target = "MBHA DNA substrate"
observed_value = 48

[[record]]
structure_string = "Cc1ccc2nc(-c3ccc4nc(-c5ccc(NC(=O)c6ccc(Cl)cc6)cc5)sc4c3)sc2c1S(=O)(=O)O"
measurement_target = "MBHA DNA substrate"
observed_value = 67

[[record]]
structure_string = "Cc1ccc2nc(-c3ccc4nc(-c5ccc(NC(=O)c6ccc(C(F)(F)F)cc6)cc5)sc4c3)sc2c1S(=O)(=O)O"
measurement_target = "MBHA DNA substrate"
observed_value = 69

[[record]]
structure_string = "Cc1ccc2nc(-c3ccc4nc(-c5ccc(NC(=O)c6ccccc6C(F)(F)F)cc5)sc4c3)sc2c1S(=O)(=O)O"
measurement_target = "MBHA DNA substrate"
observed_value = 30

[[record]]
structure_string = "Cc1ccc2nc(-c3ccc4nc(-c5ccc(NC(=O)c6ccc7nc(-c8ccc(N)cc8)sc7c6)cc5)sc4c3)sc2c1S(=O)(=O)O"
measurement_target = "MBHA DNA substrate"
observed_value = 59

[[record]]
structure_string = "Cc1ccc(C(=O)Nc2ccc(-c3nc4ccc(-c5nc6ccc(C)c(S(=O)(=O)O)c6s5)cc4s3)cc2)cc1"
measurement_target = "MBHA DNA substrate"
observed_value = 50


----------
MEASUREMENT_TARGET: scNS4A-NS3 (Hepatitis C virus genotype 1b, UniProt Q9WMX2)
Sequence (Q9WMX2 1027-1657): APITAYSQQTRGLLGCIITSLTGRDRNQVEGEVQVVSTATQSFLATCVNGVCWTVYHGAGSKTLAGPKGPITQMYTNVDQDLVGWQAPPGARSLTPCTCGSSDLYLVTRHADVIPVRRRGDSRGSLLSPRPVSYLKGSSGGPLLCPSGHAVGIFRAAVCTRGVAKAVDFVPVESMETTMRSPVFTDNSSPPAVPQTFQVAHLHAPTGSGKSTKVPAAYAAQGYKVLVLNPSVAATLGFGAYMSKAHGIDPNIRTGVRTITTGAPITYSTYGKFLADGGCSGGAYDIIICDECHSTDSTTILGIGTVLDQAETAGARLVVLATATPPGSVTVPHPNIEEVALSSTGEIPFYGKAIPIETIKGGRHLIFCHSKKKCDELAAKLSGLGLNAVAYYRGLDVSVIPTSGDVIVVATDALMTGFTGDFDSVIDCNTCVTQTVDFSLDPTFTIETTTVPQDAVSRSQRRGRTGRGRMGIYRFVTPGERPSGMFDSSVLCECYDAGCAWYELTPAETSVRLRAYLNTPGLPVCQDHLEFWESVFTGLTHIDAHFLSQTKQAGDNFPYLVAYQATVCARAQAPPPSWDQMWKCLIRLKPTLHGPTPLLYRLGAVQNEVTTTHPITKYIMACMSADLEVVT
QUANTITY_MEASURED: IC50 (µM)

[[record]]
structure_string = "Cc1ccc2nc(-c3ccc4nc(-c5ccc(NC(=O)c6cc(C(F)(F)F)cc(C(F)(F)F)c6)cc5)sc4c3)sc2c1S(=O)(=O)O"
reading_qualifier = "="
observed_value = 23

[[record]]
structure_string = "Cc1ccc2nc(-c3ccc4nc(-c5ccc(NC(=O)c6cc(C(F)(F)F)ccc6F)cc5)sc4c3)sc2c1S(=O)(=O)O"
reading_qualifier = "="
observed_value = 51

[[record]]
structure_string = "Cc1ccc2nc(-c3ccc4nc(-c5ccc6nc(-c7ccc8nc(-c9ccc(N)cc9)sc8c7)sc6c5)sc4c3)sc2c1S(=O)(=O)O"
reading_qualifier = "="
observed_value = 2

[[record]]
structure_string = "Cc1ccc2nc(-c3ccc4nc(-c5ccc(NC(=O)c6ccc7ccccc7c6)cc5)sc4c3)sc2c1S(=O)(=O)O"
reading_qualifier = ">"
observed_value = 100

[[record]]
structure_string = "Cc1ccc2nc(-c3ccc4nc(-c5ccc(N)cc5)sc4c3)sc2c1S(=O)(=O)O"
reading_qualifier = ">"
observed_value = 100

[[record]]
structure_string = "Cc1ccc2nc(-c3ccc4nc(-c5ccc(NC(=O)c6cccc(Cl)c6)cc5)sc4c3)sc2c1S(=O)(=O)O"
reading_qualifier = ">"
observed_value = 100

[[record]]
structure_string = "Cc1ccc2nc(-c3ccc4nc(-c5ccc(NC(=O)c6ccc(C(F)(F)F)cc6)cc5)sc4c3)sc2c1S(=O)(=O)O"
reading_qualifier = "="
observed_value = 5

[[record]]
structure_string = "Cc1ccc2nc(-c3ccc4nc(-c5ccc(NC(=O)c6ccc(F)cc6)cc5)sc4c3)sc2c1S(=O)(=O)O.N"
reading_qualifier = "="
observed_value = 89

[[record]]
structure_string = "Cc1ccc2nc(-c3ccc4nc(-c5ccc(NC(=O)c6ccc(Br)cc6)cc5)sc4c3)sc2c1S(=O)(=O)O"
reading_qualifier = "="
observed_value = 6


----------
MEASUREMENT_TARGET: HCV NS3 helicase NS3h_1b(con1) (Hepatitis C virus genotype 1b, UniProt Q9WMX2)
Construct: truncated C-terminally His-tagged NS3 proteins lacking the N-terminal protease, called NS3h; His-tag (C); made in house
Sequence (Q9WMX2 1192-1657): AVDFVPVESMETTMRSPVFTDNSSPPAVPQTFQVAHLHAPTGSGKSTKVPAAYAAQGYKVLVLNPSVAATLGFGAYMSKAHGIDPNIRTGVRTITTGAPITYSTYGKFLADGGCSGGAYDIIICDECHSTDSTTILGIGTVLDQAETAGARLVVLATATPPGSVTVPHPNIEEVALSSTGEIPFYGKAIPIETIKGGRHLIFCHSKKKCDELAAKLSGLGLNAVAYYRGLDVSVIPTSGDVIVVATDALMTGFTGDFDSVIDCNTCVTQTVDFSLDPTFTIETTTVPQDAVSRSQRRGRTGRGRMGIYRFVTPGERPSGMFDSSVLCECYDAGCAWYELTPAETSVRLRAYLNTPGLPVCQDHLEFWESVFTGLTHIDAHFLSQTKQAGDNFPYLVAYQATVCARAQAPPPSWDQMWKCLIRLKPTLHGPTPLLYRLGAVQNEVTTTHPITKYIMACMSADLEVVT
PROCEDURE_SUMMARY: MBHA screen of NCI mechanistic set library at 20 μM (percent inhibition, compound interference)
Type: biochemical
TEST_CONDITIONS: compounds at 20 μM, MBHA with DNA substrate; calculated from Equation 1
QUANTITY_MEASURED: Inh. (%) (Inhibition)

[[record]]
compound = "O=c1cccccc1O [Compound 89303]"
observed_value = 15.8

[[record]]
compound = "O=C1Nc2c(Cl)cc(Cl)cc2C1=O [Compound 26045]"
observed_value = "−13.7"

[[record]]
compound = "C1CN1c1nc(N2CC2)nc(N2CC2)n1 [Compound 9706]"
observed_value = "−10.9"

[[record]]
compound = "O=C([CH-]C(=O)C(F)(F)F)c1ccccc1.O=C([CH-]C(=O)C(F)(F)F)c1ccccc1.O=C([CH-]C(=O)C(F)(F)F)c1ccccc1.O=C([CH-]C(=O)C(F)(F)F)c1ccccc1.[Eu+3].c1ccncc1 [Compound 253995]"
observed_value = 2.4

[[record]]
compound = "COc1cc(C(O)CCBr)c(OC)cc1C (centres unmarked) [Compound 611750]"
observed_value = "−8.1"

[[record]]
compound = "C=C(C)[C@@H]1CC[C@]2(CO)CC[C@]3(C)[C@H](CC[C@@H]4[C@@]5(C)CC[C@H](O)C(C)(C)[C@@H]5CC[C@]43C)[C@@H]12 [Compound 4644]"
observed_value = "−13.9"

[[record]]
compound = "COc1cccc(/C=N\\NC(=O)C(C)SC(C)C(=O)N/N=C/c2cccc(OC)c2)c1 (centres unmarked) [Compound 56737]"
observed_value = "−7.2"

[[record]]
compound = "Cc1c2ccncc2cc2c1[nH]c1ccccc12 [Compound 87206]"
observed_value = 55.6


----------
MEASUREMENT_TARGET: HCV NS3 helicase NS3h_1b(con1) (Hepatitis C virus genotype 1b, UniProt Q9WMX2)
Construct: truncated C-terminally His-tagged NS3 proteins lacking the N-terminal protease, called NS3h; His-tag (C); made in house
PROCEDURE_SUMMARY: MBHA screen of NCI mechanistic set library at 20 μM (percent inhibition, compound interference)
Format: biochemical
TEST_CONDITIONS: compounds at 20 μM, MBHA with DNA substrate; assay interference calculated with Equation 2
QUANTITY_MEASURED: Int.* (Ratio) (Interference)

[[record]]
compound = "Cc1c(Cl)cccc1NC(=O)CC1Sc2ccccc2NC1=O (stereo not drawn)"
quantity_measured = "Int.* (Ratio) (Interference)"
observed_value = 0.99

[[record]]
compound = "CC1=NN(C(=O)c2ccncc2)C(=O)C1N=Nc1ccc(F)cc1 (stereo not drawn)"
quantity_measured = "Int.* (Ratio) (Interference)"
observed_value = 0.98

[[record]]
compound = "CCS(=O)(=O)Nc1ccc(Nc2c3ccccc3nc3ccccc23)c(OC)c1.CS(=O)(=O)O"
quantity_measured = "Int.* (Ratio) (Interference)"
observed_value = 0.87

[[record]]
compound = "O=[N+]([O-])[O-].O=[N+]([O-])[O-].O=[N+]([O-])[O-].[Ga+3]"
quantity_measured = "Int.* (Ratio) (Interference)"
observed_value = 0.75

[[record]]
compound = "C=C(CN(C)C)C(=O)c1ccccc1Cl.Cl"
quantity_measured = "Int.* (Ratio) (Interference)"
observed_value = 0.85

[[record]]
compound = "C/C(=N\\NC(=S)N1CCN(C2CCCCCC2)CC1)c1ccccn1"
quantity_measured = "Int.* (Ratio) (Interference)"
observed_value = 1.02

[[record]]
compound = "CCCCn1c2c(n(CCCC)c1=S)-c1c(n(CCCC)c(=S)n1CCCC)SSSS2"
quantity_measured = "Int.* (Ratio) (Interference)"
observed_value = 0.93

[[record]]
compound = "C[n+]1ccc(Nc2ccc(NC(=O)c3ccc(Nc4cc[n+](C)c5ccc([N+](=O)[O-])cc45)cc3[N+](=O)[O-])cc2)cc1.Cl"
quantity_measured = "Int.* (Ratio) (Interference)"
observed_value = 0.46

[[record]]
compound = "Cc1cc(C)c(NC(=O)/C=C/c2ccccc2)c(C)c1"
quantity_measured = "Int.* (Ratio) (Interference)"
observed_value = 1.07

